# Test system: AKT1;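 further: KINOMEscan kinase panel screen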
# Study Conditions: concentration: 1 μM, replicates: in singlicate; n = 1
Measurement Type: %Inh (%)
Provide only the numeric value, understood in %.

Prompt: Reported %Inh, compound Cc1cccc(Nc2nc(N[C@H]3CCCC[C@H]3N)ncc2C(N)=O)c1.Cl : ____
Response: 0

Prompt: Follow-up item: COc1ccc(C)c(Nc2ccnc(Nc3ccc(-c4cnc[nH]4)cc3)n2)c1.Cl
Response: 14

Prompt: Follow-up item: Cn1cc(-c2cnc(N)c3c(-c4ccc5c(c4)CCN5C(=O)Cc4ccccc4)csc23)cn1
Response: 14

Prompt: Follow-up item: CC(C)(C)c1ccc(C(=O)Nc2cn3cc(-n4ccnc4)ccc3n2)cc1
Response: 6
